# assay_method_text: soluble fraction after stress (log2 fold change); higher = more stays soluble; pooled small domains, quantitative proteomics
# condition_parameters: stress: 50 degC
readout: soluble fraction (log2)
No unit in the answer, please; the number alone is enough.

[ask] Hello, please tell me recorded soluble fraction (log2) for this one: HMSQDPLETYYPQWSAAVKQSNPDAEIIRDTDGKYYVEGMTKNRVAVIYENPHLVRLVNATTNVHVE
[reply] 0.0542

[ask] Read the entry HMLMKILTDALEKMSPEELKELAEATGVKNTSSITPETMVGVFQAVFRVGGFKSYQLTLIIVNAVLKA and write its reported soluble fraction (log2).
[reply] -0.126

[ask] Identify the reported soluble fraction (log2) for the following entry. HMSINISFEPADHLGKDVIFIRFPYDNEWIQRVRKLKGAKWSQSQRAWHVPDTEHYRTLFQLPQKI
[reply] -2.6

[ask] Report soluble fraction (log2), nothing else, for this sequence: HMVAADTVQVPDVTGKTVADAKQALISAGLQVGTVTAKDGKETANTILETSPAAGTSVDKGSKVNLVYSTG
[reply] -0.185

[ask] Give the measured soluble fraction (log2) for HMGKTEMPFSTFLTEVDKGNIVSVDIRGSEISGNFRDGKGFKTYSPNYPNLVEKLSAKGVAITAGPR
[reply] 0.187

[ask] State, in one line, measured soluble fraction (log2) of HMNVEGEVVVPNVIGRTMKDVAVILSDLGLRMEAEGTGVAKSSQPQHGTSVKRGTVVQVRFEPLSVN
[reply] 0.141

[ask] Consider the sequence HMTDAEQHEALLFKQVVDGLPQTLRDTFVLSRHAGMTYAEISAHTGTPIKTVESRMAKALELIAQRMR and give its recorded soluble fraction (log2).
[reply] -0.67

[ask] Kindly indicate its recorded soluble fraction (log2). Item: HMSKNYYEILGVTPDVELSQLKAVYRRLVRKYHPDINPDGELIFKDITEAYEVLSDEKQRKQYDMINGF
[reply] -0.0246

* * *

# assay_method_text: soluble fraction after stress (log2 fold change); higher = more stays soluble; pooled small domains, quantitative proteomics
# condition_parameters: stress: 50 degC
readout: soluble fraction (log2)
Please reply with the number alone, leaving off any unit.

[ask] Supply measured soluble fraction (log2) of HMYDRIKLLKLREKRGLTQYELAEKAGISVVTLNKIETSDMAKPFASTLKKIALALGVGIEELS in your reply.
[reply] -0.121

[ask] Query soluble fraction (log2) for HMNLSSETLSEMEARIGQMGVVELQDRRAYLLQEQEGTQNPSRLKEIADELSAIQKALVALV
[reply] 0.1

[ask] Determine from records and report soluble fraction (log2) for HMLERPLFTPEQYGRFRGKEARIRLSNPVEGRKTLTGSIVEATEERIVVFVEEEEREVTVPFQWIKSGNL
[reply] -0.435

[ask] Using known records, supply soluble fraction (log2) for HMSDAIQLEQKIGLEAIEWYLALSEQTDDKLLYQQWQSWLAADPQHQLAWSRIEQVNHGLNTL
[reply] -0.706

[ask] Report soluble fraction (log2) for HMKGKDLQDAVVTVVGGAENWNAIRAWAQASASDSEKREINAAFQSGKLMATMMAERLALAYQQSG
[reply] -0.0897

[ask] Tell us which soluble fraction (log2) value is on record for HMTSEVPVGSNVRIRASTLAGERDFEGTMLPPAGEGLTTLKLVNGYNLSYPSKDVLDIEFLGGAGE
[reply] 0.057

[ask] Supply reported soluble fraction (log2) belonging to this sequence: HMQLKFTDLRKEILRMIWEGHGPQKAYDLLNKLQQTNPSAKPATVYRALDFLIGNGFIHKVASLNAFVG
[reply] -0.668

[ask] Output measured soluble fraction (log2) for this item: HMQEDQKTSIFDIEGVEKGVASVLSSIKVEIVSDLLEADMDDILKSGKISEDDLDGVYEAVQNFVER
[reply] 0.42
